Recorded GI50 for the following molecules
Test system: RXF 393 renal
ASSAY NOTES: NCI tumour cell line growth inhibition, 48 h
ATTRIBUTE MEASURED: GI50

{"CHEMICAL STRUCTURE": "N#Cc1c(NCc2ccccc2)nc(NCc2ccccc2)c(C#N)c1-c1ccc(O)cc1", "ASSAY RESULT": "39100 nM"}
{"CHEMICAL STRUCTURE": "O=C1/C(=C/c2ccccc2)CN(C(=O)C(Cl)Cl)C/C1=C\\c1ccccc1", "ASSAY RESULT": "914 nM"}
{"CHEMICAL STRUCTURE": "Cc1ccc2oc(=O)cc(/C(=C3/C=CC=N3)c3ccc[nH]3)c2c1", "ASSAY RESULT": "256 nM"}
{"CHEMICAL STRUCTURE": "Oc1ccc(O)c(-c2cn3c(n2)SCC3)c1", "ASSAY RESULT": "18400 nM"}
{"CHEMICAL STRUCTURE": "COc1ccc2c(c1)c(-c1nc(-c3c[nH]c4ncccc34)cs1)cn2CCCN1CCCCC1", "ASSAY RESULT": "1590 nM"}
{"CHEMICAL STRUCTURE": "COc1ccc(C#Cc2ccc(=O)oc2-c2cc(OC)c(OC)c(OC)c2)cc1O", "ASSAY RESULT": "1120 nM"}
{"CHEMICAL STRUCTURE": "Cn1c(=O)c(Oc2ccc(F)cc2F)cc2cnc(NC(C)(C)CO)nc21", "ASSAY RESULT": "> 25000 nM"}
{"CHEMICAL STRUCTURE": "N=C(N)c1ccc(-c2ccc(/C=C/c3ccccc3)s2)cc1", "ASSAY RESULT": "1650 nM"}
{"CHEMICAL STRUCTURE": "O=S(=O)([O-])c1ccc(N=Cc2ccccc2[O-])cc1.O=S(=O)([O-])c1ccc(N=Cc2ccccc2[O-])cc1.[Co+2]", "ASSAY RESULT": "> 100000 nM"}

----------
Test system: SF-268 CNS
ASSAY NOTES: NCI tumour cell line growth inhibition, 48 h
Recorded GI50 for the following molecules

{"MOLECULE": "CN(C)c1ccc(/C=C/c2ccc(S(N)(=O)=O)cc2)cc1", "GI50": "7.16 µM"}
{"MOLECULE": "NC(=NCc1ccccc1)C(N=Nc1ccccc1)C(=O)NCc1ccccc1 (centres undefined)", "GI50": "2.53 µM"}
{"MOLECULE": "O=C1C(Cl)=C(Nc2ccc(Nc3ccccc3)c(NC3=C(Cl)C(=O)c4ccccc4C3=O)c2)C(=O)c2ccccc21", "GI50": "3.63 µM"}
{"MOLECULE": "COc1ccc(C=Nc2c(C(=O)Nc3cccc(Cl)c3C)sc3nc(C)c(C(=O)/C=C/c4ccc(OC)cc4)cc23)cc1", "GI50": "1.6 µM"}
{"MOLECULE": "Oc1ccc(Nc2ccc3ccccc3c2)cc1", "GI50": "4.94 µM"}
{"MOLECULE": "COc1ccc2c3c(Nc4cccc(/C(C)=N\\O)c4)[nH]c4ccccc4c-3c(N=O)c2c1", "GI50": "> 100 µM"}
{"MOLECULE": "COc1cccc(/C=C/C(=O)c2ccc(SC)cc2)c1OC", "GI50": "20.2 µM"}
{"MOLECULE": "O=C(Nc1ccc(Cc2ccccc2)cc1)Nc1nn(C(=O)Nc2ccc(Cc3ccccc3)cc2)c2ccccc12", "GI50": "75.6 µM"}
{"MOLECULE": "C=C(CN1CCN(c2ccc(C(F)(F)F)cc2)CC1)c1ccc(C(=O)Nc2ccccc2N)cc1", "GI50": "6.78 µM"}

----------
Tested on: M14 melanoma
ASSAY NOTES: NCI tumour cell line growth inhibition, 48 h
ATTRIBUTE MEASURED: TGI (µM)

{"COMPOUND": "O=C1CSC(c2c[nH]c3ccccc23)N1c1ccc(Cl)cc1 (configuration not stated)", "ATTRIBUTE MEASURED": "TGI", "UNIT SPEC": "µM", "VALUE MODIFIER": ">", "ASSAY RESULT": 100}
{"COMPOUND": "Clc1cccc(-c2sc(-c3ccsc3)cc2Cc2ccsc2)c1", "ATTRIBUTE MEASURED": "TGI", "UNIT SPEC": "µM", "VALUE MODIFIER": ">", "ASSAY RESULT": 10}
{"COMPOUND": "O=C(/C=C/c1ccc(Cl)cc1)c1ccccc(=O)c1O", "ATTRIBUTE MEASURED": "TGI", "UNIT SPEC": "µM", "VALUE MODIFIER": "=", "ASSAY RESULT": 20.1}
{"COMPOUND": "O=C(CCl)NCCNc1nccc(Nc2ccc(S(=O)(=O)Nc3ccccn3)cc2)n1", "ATTRIBUTE MEASURED": "TGI", "UNIT SPEC": "µM", "VALUE MODIFIER": "=", "ASSAY RESULT": 4.69}
{"COMPOUND": "NCCc1ccc(S(=O)(=O)F)cc1", "ATTRIBUTE MEASURED": "TGI", "UNIT SPEC": "µM", "VALUE MODIFIER": ">", "ASSAY RESULT": 100}
{"COMPOUND": "CCCCn1c(CSc2ccc(Cl)cc2)c(C(=O)OCC)c2cc(OC)c(Br)cc21", "ATTRIBUTE MEASURED": "TGI", "UNIT SPEC": "µM", "VALUE MODIFIER": ">", "ASSAY RESULT": 100}
{"COMPOUND": "CC(C)C12Cc3c(ccc4ccccc34)OC1(C)Oc1ccc3ccccc3c1C2 (configuration not stated)", "ATTRIBUTE MEASURED": "TGI", "UNIT SPEC": "µM", "VALUE MODIFIER": ">", "ASSAY RESULT": 100}
{"COMPOUND": "CC1CCN(Cc2ccc(NC(=O)c3cc4ccc5cccnc5c4[nH]3)cc2)CC1", "ATTRIBUTE MEASURED": "TGI", "UNIT SPEC": "µM", "VALUE MODIFIER": "=", "ASSAY RESULT": 4.08}
{"COMPOUND": "Cc1c[n+]2c3ccccc3c3ccccc3c2s1", "ATTRIBUTE MEASURED": "TGI", "UNIT SPEC": "µM", "VALUE MODIFIER": "=", "ASSAY RESULT": 35.4}
{"COMPOUND": "CC1(c2sccc2Cl)CC(c2sccc2Cl)=C(C#N)C(=C(C#N)C#N)N1 (configuration not stated)", "ATTRIBUTE MEASURED": "TGI", "UNIT SPEC": "µM", "VALUE MODIFIER": "=", "ASSAY RESULT": 42.7}
{"COMPOUND": "CSC1(C)C(=O)Nc2c(OCc3ccccc3)cc([N+](=O)[O-])cc21 (configuration not stated)", "ATTRIBUTE MEASURED": "TGI", "UNIT SPEC": "µM", "VALUE MODIFIER": ">", "ASSAY RESULT": 100}
{"COMPOUND": "CSc1c(C2=C(c3cn(C)c4ccccc34)C(=O)NC2=O)c2ccccc2n1C", "ATTRIBUTE MEASURED": "TGI", "UNIT SPEC": "µM", "VALUE MODIFIER": ">", "ASSAY RESULT": 25}
{"COMPOUND": "CCOC(=O)/C=C(\\C(=O)OCC)n1ccc(=O)n(Cc2cnnn2CCCCOC(C)=O)c1=O", "ATTRIBUTE MEASURED": "TGI", "UNIT SPEC": "µM", "VALUE MODIFIER": "=", "ASSAY RESULT": 38.8}
{"COMPOUND": "CO[C@@H]1C=C[C@@]23c4cc5c(cc4CN(C[C@@H]2O)[C@H]3C1)OCO5", "ATTRIBUTE MEASURED": "TGI", "UNIT SPEC": "µM", "VALUE MODIFIER": "=", "ASSAY RESULT": 31.5}
{"COMPOUND": "COc1cc(OC)c(C(=O)c2cccs2)cc1N", "ATTRIBUTE MEASURED": "TGI", "UNIT SPEC": "µM", "VALUE MODIFIER": ">", "ASSAY RESULT": 100}
{"COMPOUND": "c1cc(-c2ccc(-c3ccc(-c4ccc(-c5ccncc5)o4)cc3)o2)ccn1", "ATTRIBUTE MEASURED": "TGI", "UNIT SPEC": "µM", "VALUE MODIFIER": "=", "ASSAY RESULT": 32.2}
{"COMPOUND": "CC(=O)Nc1cc2cc(N)ccc2oc1=O", "ATTRIBUTE MEASURED": "TGI", "UNIT SPEC": "µM", "VALUE MODIFIER": ">", "ASSAY RESULT": 100}
{"COMPOUND": "COC(=O)c1ccc2c(c1)C(=O)c1c-2n(CCCCl)c(=O)c2cc([N+](=O)[O-])ccc12", "ATTRIBUTE MEASURED": "TGI", "UNIT SPEC": "µM", "VALUE MODIFIER": ">", "ASSAY RESULT": 100}
{"COMPOUND": "COc1c(C)cc2c(C(C)C)c(O)c(O)c(C=O)c2c1O", "ATTRIBUTE MEASURED": "TGI", "UNIT SPEC": "µM", "VALUE MODIFIER": "=", "ASSAY RESULT": 64.4}
{"COMPOUND": "COC(=O)c1cc(C(=O)OC)c(CC(=O)C(=O)NC2C3CC4CC(C3)CC2C4)nc1CC(=O)C(=O)NC1C2CC3CC(C2)CC1C3 (configuration not stated)", "ATTRIBUTE MEASURED": "TGI", "UNIT SPEC": "µM", "VALUE MODIFIER": ">", "ASSAY RESULT": 100}
{"COMPOUND": "Cc1cccc(-n2c(N)c(-c3nc4ccccc4[nH]3)sc2=S)c1", "ATTRIBUTE MEASURED": "TGI", "UNIT SPEC": "µM", "VALUE MODIFIER": "=", "ASSAY RESULT": 48.4}
{"COMPOUND": "O=C(/C=C\\c1cccc2ccccc12)c1ccc(F)cc1", "ATTRIBUTE MEASURED": "TGI", "UNIT SPEC": "µM", "VALUE MODIFIER": "=", "ASSAY RESULT": 29.9}
